Where a name gives a salt, the structure may show the parent alone.
Outcome measure: melting point (°C)

INSERT INTO results (compound, reported_value) VALUES
  ('COc1nc2ccc(Cl)cc2cc1C(c1ccc(S(C)(=O)=O)cc1)C1(O)CCNC(c2ccc(F)cc2C)C1 (stereo not shown) [Compound 367]', 175),
  ('CSc1ccc2[nH]c(=O)c(C(c3ccccc3)C3(O)CCNC(c4ccc(F)cc4C)C3)cc2c1 (stereo not shown) [Compound 181]', 173),
  ('COc1nc2ccc(S(C)(=O)=O)cc2cc1C(c1ccccc1)C1(O)CCNC(c2ccc(F)cc2C)C1 (stereo not shown) [Compound 187]', 167),
  ('COc1nc2ccc(Cl)cc2cc1C(c1ccc(Cl)cc1)C1(O)CCNCC1c1ccccc1 (stereo not shown) (as salt: fumarate) [Compound 411]', 168);

[I] CSc1ccc2[nH]c(=O)c(C(c3ccc(Cl)cc3)C3(O)CCNC(Cc4ccc(F)cc4)C3)cc2c1 (stereo not shown) (as salt: hydrochloride) [Compound 334]
[II] CSc1ccc2[nH]c(=O)c(C(c3cccc(Cl)c3)C3(O)CCNC(Cc4ccc(F)cc4F)C3)cc2c1 (stereo not shown) (as salt: hydrochloride) [Compound 310]
Param pair: I , II . Output: the one whose melting point is numerically greater. The response must carry the label of the picked entry.
I
